# tested_on: rP2X3 (Rattus norvegicus, UniProt P49654)
# Sequence (P49654 1-397): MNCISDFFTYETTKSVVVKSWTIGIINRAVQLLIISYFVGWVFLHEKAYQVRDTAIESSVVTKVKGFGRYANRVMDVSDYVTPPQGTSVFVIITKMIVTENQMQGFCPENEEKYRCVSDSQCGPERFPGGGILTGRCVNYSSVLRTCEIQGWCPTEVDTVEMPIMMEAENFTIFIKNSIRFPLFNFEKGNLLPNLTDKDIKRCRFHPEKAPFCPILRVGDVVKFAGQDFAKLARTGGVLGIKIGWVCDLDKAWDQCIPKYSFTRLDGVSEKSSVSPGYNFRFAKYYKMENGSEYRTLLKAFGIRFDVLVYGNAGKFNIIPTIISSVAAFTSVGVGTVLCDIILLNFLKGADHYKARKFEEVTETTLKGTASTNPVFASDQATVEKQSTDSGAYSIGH
# assay_info: Inhibitory activity against P2X3 in rats (electrophysiological method)
pIC50: −log10 of the molar value.
measurement_type: pIC50

P. Cc1ccc(C2=NN(C(=O)N[C@H](C)c3ccc(C(F)(F)F)nc3)C[C@@H]2N2CCN(C)CC2=O)cc1
Q. Cc1ccc(C2=NN(C(=O)N[C@H](C)c3ccc(C(F)(F)F)nc3)C[C@H]2N2CCOC2=O)cc1 [Compound 22a]
Ask: // pick min by pIC50: P , Q Identify your selection by its label.
Reply: P

a. Cc1ccc(C2=NN(C(=O)N[C@H](C)c3ccc(C(F)(F)F)nc3)C[C@@H]2N2CCOC2=O)nc1
b. CCOC(=O)N(C)[C@H]1CN(C(=O)N[C@H](C)c2cnc(C(F)(F)F)nc2)N=C1c1ccc(C)cc1
Ask: Which numeric pIC50 is bigger, that of a or that of b ? Lab log: write the label of the selected item as the result.
Reply: a
(a: 6.99, b: 6.78)
